| Compound | melting point |
| --- | --- |
| CCCC(CCC)C1C(C(=O)c2ccc(OC)cc2)=C(O)C(=O)N1c1ccc(-c2ccon2)cc1 (stereo not shown) [Example I-220] | 229 to 231 °C |
| CCC(CC)C1C(C(=O)c2ccc(=O)[nH]c2)=C(O)C(=O)N1c1ccc(-c2ccon2)cc1 (stereo not shown) [Example I-208] | > 290 °C |
| CCC(CC)C1C(C(=O)c2ccc(OC)cc2)=C(O)C(=O)N1c1ccc(C2=NCCS2)cc1 (stereo not shown) [Example I-234] | 230 to 233 °C |
| COc1ccc(C(=O)C2=C(O)C(=O)N(c3ccc(-c4ccon4)cc3)C2c2ccccn2)cc1 (stereo not shown) [Example I-236] | 232 to 234 °C |
| CCCCC(CCCC)C1C(C(=O)c2ccc(OC)cc2)=C(O)C(=O)N1c1ccc(-c2ccon2)cc1 (stereo not shown) [Example I-215] | 207 to 210 °C |
| COc1ccc(C(=O)C2=C(O)C(=O)N(c3ccc(OC)cc3)C2c2ccc(F)cc2)cc1 (stereo not shown) [Example I-238] | 245 to 247 °C |
| COC1=C(C(=O)C(C)(C)C)C(c2ccccc2OC)N(c2ccc(-c3ccon3)cc2)C1=O (stereo not shown) [II-156] | 136 to 137 °C |

----------
# Study system: human P2X3 receptor (Homo sapiens, UniProt P56373)
# Sequence (P56373 1-397): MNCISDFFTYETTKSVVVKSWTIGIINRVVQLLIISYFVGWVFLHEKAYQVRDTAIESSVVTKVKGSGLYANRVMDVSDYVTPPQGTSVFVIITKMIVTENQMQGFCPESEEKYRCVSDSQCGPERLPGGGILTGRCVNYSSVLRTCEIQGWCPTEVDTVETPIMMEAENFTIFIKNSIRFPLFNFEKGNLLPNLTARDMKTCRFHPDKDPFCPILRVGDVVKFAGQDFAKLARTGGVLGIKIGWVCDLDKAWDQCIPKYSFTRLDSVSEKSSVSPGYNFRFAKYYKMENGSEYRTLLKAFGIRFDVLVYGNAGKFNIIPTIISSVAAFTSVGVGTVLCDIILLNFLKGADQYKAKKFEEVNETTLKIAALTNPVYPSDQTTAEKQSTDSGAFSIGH
# Protocol details: Inhibition of ATP-induced calcium fluorescence (Fluo-3, FDSS 3000) in C6BU-1 cells stably expressing human P2X3 receptor
# Applied conditions: C6BU-1 cell transfected with human P2X3 receptor gene; 40 nM ATP solution; Fluo-3 fluorescence intensity
Measure name: log10 of IC50 (log10 of the value in nM)

| Compound | log10 of IC50 |
| --- | --- |
| CCOc1ccc(C(=O)C2C(=O)C(=O)N(c3ccc(OC)cc3)C2c2ccc(Cl)cc2)cc1 (stereo not shown) [Example I-88] | 4.19 |
| CCOC(=O)c1ccc(N2C(=O)C(O)=C(C(=NOC)c3ccc(OC)cc3)C2c2ccccc2)cc1 (stereo not shown) [II-17] | 2.48 |
| COc1ccc(C(=O)C2=C(O)C(=O)N(c3ccc(C(=O)N(C)C)cc3)C2c2ccccc2)cc1 (stereo not shown) [Example I-74] | 3.77 |
| CC(=O)c1ccc(N2C(=O)C(=O)C(C(=O)c3ccc(Cl)cc3)C2c2ccc(Br)cc2)cc1 (stereo not shown) [Example I-62] | 3.29 |
| CCOC(=O)c1csc(N2C(=O)C(O)=C(C(=O)c3ccc(OC)cc3)C2c2ccccc2)n1 (stereo not shown) [Example I-52] | 3.10 |
| CCOC(=O)c1ccc(N2C(=O)C(=O)C(/C(=N\O)c3ccc(OC)cc3)C2c2ccccc2)cc1 (stereo not shown) [Example I-44] | 2.75 |
| COc1ccccc1C1c2c(C(C)(C)C)n[nH]c2C(=O)N1c1ccc(-c2cc(NC(=O)OC(C)(C)C)no2)cc1 (stereo not shown) [II-193] | 3.36 |
| COc1ccc(C2NC(=O)c3[nH]nc(-c4ccc(C)cc4)c32)cc1OC (stereo not shown) [Example I-124] | 4.34 |
| COc1ccc(C(=O)C2=C(O)C(=O)N(c3ccc(OC(F)(F)F)cc3)C2c2ccc(F)cc2)cc1 (stereo not shown) [Example I-48] | 2.99 |
| COc1ccccc1C1c2c(C3CCC3)n[nH]c2C(=O)N1c1ccc(F)cc1 (stereo not shown) [Example I-260] | 3.75 |
| CO/N=C/c1ccc(N2C(=O)c3[nH]nc(-c4ccc(OC)cc4)c3C2c2ccccc2OC)cc1 (stereo not shown) [II-13] | 2.76 |
| COC(=O)c1ccc(C(=O)C2=C(O)C(=O)N(c3ccc(C(F)(F)F)cc3)C2c2ccccc2)cc1 (stereo not shown) [Example I-24] | 2.26 |
| O=C(C1=C(O)C(=O)N(c2ccc(-c3ccon3)cc2)C1C1CCCCC1)c1cccnc1 (stereo not shown) [II-75] | 2.57 |
| COc1ccc(C(=O)C2=C(O)C(=O)N(c3ccc(SC(F)(F)F)cc3)C2c2ccc(F)cc2)cc1 (stereo not shown) [Example I-45] | 2.76 |
| CCOC(=O)c1ccc(N2C(=O)C(=O)C(C(C)=O)C2c2ccccc2)cc1 (stereo not shown) [Example I-72] | 3.68 |
| COc1ccccc1C1c2c(CCOCc3ccccc3)n[nH]c2C(=O)N1c1ccc(-c2ccon2)cc1 (stereo not shown) [II-87] | 3.12 |

----------
Parameter: IC50. Scope: all listed entries.
# Study system: human P2X3 receptor (Homo sapiens, UniProt P56373)
# Protocol details: Inhibition of ATP-induced calcium fluorescence (Fluo-3, FDSS 3000) in C6BU-1 cells stably expressing human P2X3 receptor
# Applied conditions: C6BU-1 cell transfected with human P2X3 receptor gene; 40 nM ATP solution; Fluo-3 fluorescence intensity

| Compound | Study system | Unit string | IC50 |
| --- | --- | --- | --- |
| COc1ccccc1C1c2c(-c3ccc(F)cc3)n[nH]c2C(=O)N1c1ccc(F)cc1 (centres unmarked) | human P2X3 receptor (Homo sapiens, UniProt P56373) | nM | 1370 |
| COc1ccc(C(=O)C2=C(O)C(=O)N(c3ccc(C4=NCCO4)cc3)C2c2ccc(F)cc2)cc1 (centres unmarked) | human P2X3 receptor (Homo sapiens, UniProt P56373) | nM | 3780 |
| CCOC(=O)c1ccc(N2C(=O)C(O)=C(C(=O)c3ccc(OC)cc3)C2C(C)C)cc1 (centres unmarked) | human P2X3 receptor (Homo sapiens, UniProt P56373) | nM | 140 |
| COc1ccccc1C1C(C(=O)C(C)=O)=C(O)C(=O)N1c1ccc(-c2ccon2)cc1 (centres unmarked) | human P2X3 receptor (Homo sapiens, UniProt P56373) | nM | 2090 |
| COc1ccccc1C1c2c(C(C)(C)C)n[nH]c2C(=O)N1c1ccc(-c2cc(CO)no2)cc1 (centres unmarked) | human P2X3 receptor (Homo sapiens, UniProt P56373) | nM | 950 |
| COc1ccc(C(=O)C2=C(O)C(=O)N(c3ccc(-c4nc(C)no4)cc3)C2c2ccc(F)cc2)cc1 (centres unmarked) | human P2X3 receptor (Homo sapiens, UniProt P56373) | nM | 180 |
| CCOC(=O)c1ccc(N2C(=O)C(=O)C(C(=O)c3ccc(OC)cc3)C2c2ccccc2)cc1 (centres unmarked) | human P2X3 receptor (Homo sapiens, UniProt P56373) | nM | 20 |
| COc1ccc(C(=O)C2C(=O)C(=O)N(c3ccc(C(=O)OC(C)C)cc3)C2c2ccccc2)cc1 (centres unmarked) | human P2X3 receptor (Homo sapiens, UniProt P56373) | nM | 160 |
| O=C(C1=C(O)C(=O)N(c2ccc(-c3ccon3)cc2)C1C1CCCCC1)c1ccc([N+](=O)[O-])cc1 (centres unmarked) | human P2X3 receptor (Homo sapiens, UniProt P56373) | nM | 70 |
| CCOC(=O)c1ccc(N2C(=O)C(O)=C(C(=O)c3cccn3C)C2c2ccccc2)cc1 (centres unmarked) | human P2X3 receptor (Homo sapiens, UniProt P56373) | nM | 1530 |
| COc1ccc(-c2n[nH]c3c2C(c2ccccc2OC)N(CCc2ccc(F)cc2)C3=O)cc1 (centres unmarked) | human P2X3 receptor (Homo sapiens, UniProt P56373) | nM | 1400 |

----------
# Study system: UniProt:P56373
# Protocol details: Inhibition of ATP-induced calcium fluorescence (Fluo-3, FDSS 3000) in C6BU-1 cells stably expressing human P2X3 receptor
# Applied conditions: C6BU-1 cell transfected with human P2X3 receptor gene; 40 nM ATP solution; Fluo-3 fluorescence intensity
pIC50: −log10 of the molar value.
Param threshold (6) applies to pIC50; output class 1 when value >= threshold, class 0 when value < threshold.

| Compound | Assigned category |
| --- | --- |
| COc1ccc(-c2n[nH]c3c2C(c2ccccc2)N(c2ccc(C(=O)N(C)C)cc2)C3=O)cc1 (stereo not shown) | class 0 |
| CC(=O)Nc1ccc(C(=O)C2=C(O)C(=O)N(c3ccc(-c4ccon4)cc3)C2C2CCCCC2)cc1 (stereo not shown) | class 1 |
| COc1ccc(-c2n[nH]c3c2C(C2CC2)N(c2ccc(-c4ccon4)cc2)C3=O)cc1 (stereo not shown) | class 0 |
| O=C1c2[nH]nc(-c3ccc(Cl)cc3)c2C(c2ccc([N+](=O)[O-])cc2)N1c1ccccn1 (stereo not shown) | class 0 |
| COc1ccc(/C(N)=C2/C(=O)C(=O)N(c3ccc(C(F)(F)F)cc3)C2c2ccccc2)cc1 (stereo not shown) | class 0 |
| CCOC(=O)Cc1ccc(N2C(=O)C(O)=C(C(=O)c3ccc(OC)cc3)C2c2ccccc2)cc1 (stereo not shown) | class 0 |
| CCOC(=O)c1ccc(N2C(=O)C(O)=C(C(=O)C(C)(C)C)C2c2ccccc2)cc1 (stereo not shown) | class 1 |
| CCC(CC)C1C(C(=O)c2ccc(C(=O)NCCO)cc2)=C(O)C(=O)N1c1ccc(-c2noc(C)n2)cc1 (stereo not shown) | class 1 |
| CCOC(=O)c1ccc(N2C(=O)C(=O)C(C(=O)c3ccc(OC)cc3)C2C2CCCCC2)cc1 (stereo not shown) | class 1 |
| COc1ccc(C(=O)C2=C(O)C(=O)N(c3nc4ccc(Cl)cc4s3)C2C2CCCCC2)cc1 (stereo not shown) | class 1 |
| COc1ccccc1C1C(C(=O)C(C)(C)C)=C(O)C(=O)N1c1ccc(C2=NCCS2)cc1 (stereo not shown) | class 1 |
| COc1ccc(C(=O)C2=C(O)C(=O)N(c3ccc(C#N)cc3)C2c2ccccc2)cc1 (stereo not shown) | class 0 |
